// reported KIDNEY_L for each item listed
# Organism: Rattus norvegicus
# Experiment summary: Open TG-GATES - Regimen: Daily Repeat
# Type: toxicity, organism-based, Sprague-Dawley
# Parameters: regimen Daily Repeat, gender Male, age 6 weeks
# Condition parameters: in vivo, po, 0 mg/kg, […], tissue Kidney, route gavage, dose level Control, time 14 day
I only need the number, in g, no unit after it.

Use the examples below as a reference point.
{"columns": ["Molecule", "Unit label", "KIDNEY_L"],
 "data": [
  ["CN(C)CCCN1c2ccccc2CCc2ccccc21 [IMIPRAMINE]", "g", 1.3],
  ["COC1=CC(=O)C[C@@H](C)[C@]12Oc1c(Cl)c(OC)cc(OC)c1C2=O [GRISEOFULVIN]", "g", 1.2]
]}

Proceeding to the next molecule to report its KIDNEY_L.
What value of measured KIDNEY_L is listed for CCOC(=O)CCC(=O)O[C@H]1[C@H](O[C@@H]2[C@@H](C)[C@H](O[C@H]3C[C@@](C)(OC)[C@@H](O)[C@H](C)O3)[C@@H](C)C(=O)O[C@H](CC)[C@@](C)(O)[C@H](O)[C@@H](C)C(=O)[C@H](C)C[C@@]2(C)O)O[C@H](C)C[C@@H]1N(C)C [ERYTHROMYCIN ETHYLSUCCINATE] ?
1.3

---

# Organism: Rattus norvegicus
# Experiment summary: Open TG-GATES - Regimen: Single
# Assay type: toxicity, organism-based, Sprague-Dawley
# Set-up: regimen Single, gender Male, age 6 weeks
# Condition parameters: in vivo, po, 10 mg/kg, 3 h, tissue Plasma, route gavage, dose level Low
Endpoint label: IP
Could you kindly put the unit after your number?

{"columns": ["Compound", "IP"],
 "data": [
  ["CN(C)CCCN1c2ccccc2CCc2ccc(Cl)cc21", "9 mg/dL"],
  ["CN(C)CCN(Cc1cccs1)c1ccccn1", "8 mg/dL"],
  ["CN(C)CCCN1c2ccccc2CCc2ccccc21", "10 mg/dL"],
  ["CC1=C(/C=C/C(C)=C/C=C/C(C)=C/CO)C(C)(C)CCC1", "8.6 mg/dL"]
]}

Proceeding to the next compound to report its IP.
What value of measured IP is listed for CC(C)OC(=O)C(C)(C)Oc1ccc(C(=O)c2ccc(Cl)cc2)cc1 [FENOFIBRATE] ?
10 mg/dL

---

# Species on record: Rattus norvegicus
# Experiment summary: Open TG-GATES - Regimen: Single
# Type: toxicity, organism-based, Sprague-Dawley
# Parameters: regimen Single, gender Male, age 6 weeks
# Condition parameters: in vivo, po, 1000 mg/kg, 6 h, tissue Blood, route gavage, dose level High
// reported APTT for each item listed
I only need the number, in s, no unit after it.

Use the examples below as a reference point.
{"columns": ["Compound", "Test value"],
 "data": [
  ["NC(N)=Nc1nc(CSCCC(N)=NS(N)(=O)=O)cs1 [FAMOTIDINE]", 20.5],
  ["COc1ccc2[nH]c([S+]([O-])Cc3ncc(C)c(OC)c3C)nc2c1 (centres undefined) [OMEPRAZOLE]", 19.3],
  ["COC1=CC(=O)C[C@@H](C)[C@]12Oc1c(Cl)c(OC)cc(OC)c1C2=O [GRISEOFULVIN]", 18.5]
]}

Proceeding to the next compound to report its APTT.
What value of measured APTT is listed for CCOC(=O)CCC(=O)O[C@H]1[C@H](O[C@@H]2[C@@H](C)[C@H](O[C@H]3C[C@@](C)(OC)[C@@H](O)[C@H](C)O3)[C@@H](C)C(=O)O[C@H](CC)[C@@](C)(O)[C@H](O)[C@@H](C)C(=O)[C@H](C)C[C@@]2(C)O)O[C@H](C)C[C@@H]1N(C)C [ERYTHROMYCIN ETHYLSUCCINATE] ?
23.4

---

// reported ALT for each item listed
# Species: Rattus norvegicus
# Experiment summary: Open TG-GATES - Regimen: Single
# Format: toxicity, organism-based, Sprague-Dawley
# Design: regimen Single, gender Male, age 6 weeks
# Condition parameters: in vivo, po, 300 mg/kg, 3 h, tissue Plasma, route gavage, dose level Middle
I only need the number, in IU/L, no unit after it.

Use the examples below as a reference point.
{"columns": ["Molecule", "Endpoint label", "Test value"],
 "data": [
  ["CCOC(=O)CCC(=O)O[C@H]1[C@H](O[C@@H]2[C@@H](C)[C@H](O[C@H]3C[C@@](C)(OC)[C@@H](O)[C@H](C)O3)[C@@H](C)C(=O)O[C@H](CC)[C@@](C)(O)[C@H](O)[C@@H](C)C(=O)[C@H](C)C[C@@]2(C)O)O[C@H](C)C[C@@H]1N(C)C [ERYTHROMYCIN ETHYLSUCCINATE]", "ALT", 42.4],
  ["COc1ccc2[nH]c([S+]([O-])Cc3ncc(C)c(OC)c3C)nc2c1 (centres undefined)", "ALT", 31.8],
  ["NC(N)=Nc1nc(CSCCC(N)=NS(N)(=O)=O)cs1", "ALT", 34.2]
]}

What value of measured ALT is listed for `COC1=CC(=O)C[C@@H](C)[C@]12Oc1c(Cl)c(OC)cc(OC)c1C2=O` ?
40.8

---

# Organism: Rattus norvegicus
# Experiment summary: Open TG-GATES - Regimen: Single
# Type: toxicity, organism-based, Sprague-Dawley
# Set-up: regimen Single, gender Male, age 6 weeks
# Condition parameters: in vivo, po, 0 mg/kg, 3 h, tissue Plasma, route gavage, dose level Control
// reported log10 of TBIL for each item listed
Scale type: logarithmic (base 10). Underlying TBIL unit: mg/dL.

Use the examples below as a reference point.
{"columns": ["Molecule", "log10 of TBIL"],
 "data": [
  ["CC(C)OC(=O)C(C)(C)Oc1ccc(C(=O)c2ccc(Cl)cc2)cc1 [FENOFIBRATE]", -1.32],
  ["CCOc1ccc(NC(=O)CC(C)O)cc1 (stereo not drawn)", -1.22],
  ["CC1=C(/C=C/C(C)=C/C=C/C(C)=C/CO)C(C)(C)CCC1", -1.92]
]}

What value of measured log10 of TBIL is listed for COc1ccc2[nH]c([S+]([O-])Cc3ncc(C)c(OC)c3C)nc2c1 (stereo not drawn) ?
-1.00

What value of measured log10 of TBIL is listed for `NC(N)=Nc1nc(CSCCC(N)=NS(N)(=O)=O)cs1` ?
-1.00

What value of measured log10 of TBIL is listed for `COc1cc2c(c(OC)c1OC)-c1ccc(OC)c(=O)cc1[C@@H](NC(C)=O)CC2` ?
-0.52

---

# Organism: Rattus norvegicus
# Experiment summary: Open TG-GATES - Regimen: Single
# Assay type: toxicity, organism-based, Sprague-Dawley
# Parameters: regimen Single, gender Male, age 6 weeks
# Condition parameters: in vivo, po, 300 mg/kg, 3 h, tissue Plasma, route gavage, dose level Middle
Endpoint label: CRE (mg/dL)
I only need the number, in mg/dL, no unit after it.

Use the examples below as a reference point.
{"columns": ["Compound", "CRE / mg/dL"],
 "data": [
  ["COc1ccc2[nH]c([S+]([O-])Cc3ncc(C)c(OC)c3C)nc2c1 (centres undefined)", 0.4],
  ["COC1=CC(=O)C[C@@H](C)[C@]12Oc1c(Cl)c(OC)cc(OC)c1C2=O", 0.3],
  ["NC(N)=Nc1nc(CSCCC(N)=NS(N)(=O)=O)cs1", 0.4]
]}

Proceeding to the next compound to report its CRE.
What value of measured CRE is listed for CCOC(=O)CCC(=O)O[C@H]1[C@H](O[C@@H]2[C@@H](C)[C@H](O[C@H]3C[C@@](C)(OC)[C@@H](O)[C@H](C)O3)[C@@H](C)C(=O)O[C@H](CC)[C@@](C)(O)[C@H](O)[C@@H](C)C(=O)[C@H](C)C[C@@]2(C)O)O[C@H](C)C[C@@H]1N(C)C [ERYTHROMYCIN ETHYLSUCCINATE] ?
0.2

---

// reported Ret for each item listed
# Species on record: Rattus norvegicus
# Experiment summary: Open TG-GATES - Regimen: Single
# Format: toxicity, organism-based, Sprague-Dawley
# Set-up: regimen Single, gender Male, age 6 weeks
# Condition parameters: in vivo, po, 100 mg/kg, 6 h, tissue Blood, route gavage, dose level High
I only need the number, in %, no unit after it.

Use the examples below as a reference point.
{"columns": ["Smiles structure", "Unit label", "Ret"],
 "data": [
  ["CN(C)CCCN1c2ccccc2CCc2ccccc21", "%", 8.3],
  ["CN(C)CCCN1c2ccccc2CCc2ccc(Cl)cc21", "%", 8.2],
  ["CC1=C(/C=C/C(C)=C/C=C/C(C)=C/CO)C(C)(C)CCC1", "%", 7.8]
]}

Proceeding to the next compound to report its Ret.
What value of measured Ret is listed for `CN(C)CCN(Cc1cccs1)c1ccccn1` ?
8.4

Where do these numbers come from? They come from ChEMBL document CHEMBL3885861.
